test target: T1, LHD101 chainB
T1 construct: also called LHD101B
T1 chain: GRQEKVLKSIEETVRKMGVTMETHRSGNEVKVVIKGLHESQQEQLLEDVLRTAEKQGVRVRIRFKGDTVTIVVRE
experiment summary: BLI, dissociation rate constant (kdis)
Hi! Could you tag entries with koff below 0.01 s⁻¹ as Satisfied, and those at or above as Not satisfied? Much appreciated.

binder="LHD101A V69Q (designed binder) GRQEKVLKSIEETVRKMGVTMETHRSGNEVKVVIKGLHIKQQRQLYRDVRETSKKQGVETEIEVEGDTQTIVVRE" label_value=Satisfied
binder="LHD101A_R43V (designed binder) GRQEKVLKSIEETVRKMGVTMETHRSGNEVKVVIKGLHIKQQVQLYRDVRETSKKQGVETEIEVEGDTVTIVVRE" label_value="Not satisfied"
binder="LHD101A_Q42M (designed binder) GRQEKVLKSIEETVRKMGVTMETHRSGNEVKVVIKGLHIKQMRQLYRDVRETSKKQGVETEIEVEGDTVTIVVRE" label_value=Satisfied

Switching to the query record.
-- ask A record lists LHD101 chainA (designed binder, also called LHD101A) GRQEKVLKSIEETVRKMGVTMETHRSGNEVKVVIKGLHIKQQRQLYRDVRETSKKQGVETEIEVEGDTVTIVVRE . Is its koff below 0.01 s⁻¹?
-- reply Not satisfied
